# tgt: Recombinant Human NF-Kappab-Inducing Kinase (NIK/MAP3K14) (Homo sapiens)
# Sequence (Q99558 whole entry): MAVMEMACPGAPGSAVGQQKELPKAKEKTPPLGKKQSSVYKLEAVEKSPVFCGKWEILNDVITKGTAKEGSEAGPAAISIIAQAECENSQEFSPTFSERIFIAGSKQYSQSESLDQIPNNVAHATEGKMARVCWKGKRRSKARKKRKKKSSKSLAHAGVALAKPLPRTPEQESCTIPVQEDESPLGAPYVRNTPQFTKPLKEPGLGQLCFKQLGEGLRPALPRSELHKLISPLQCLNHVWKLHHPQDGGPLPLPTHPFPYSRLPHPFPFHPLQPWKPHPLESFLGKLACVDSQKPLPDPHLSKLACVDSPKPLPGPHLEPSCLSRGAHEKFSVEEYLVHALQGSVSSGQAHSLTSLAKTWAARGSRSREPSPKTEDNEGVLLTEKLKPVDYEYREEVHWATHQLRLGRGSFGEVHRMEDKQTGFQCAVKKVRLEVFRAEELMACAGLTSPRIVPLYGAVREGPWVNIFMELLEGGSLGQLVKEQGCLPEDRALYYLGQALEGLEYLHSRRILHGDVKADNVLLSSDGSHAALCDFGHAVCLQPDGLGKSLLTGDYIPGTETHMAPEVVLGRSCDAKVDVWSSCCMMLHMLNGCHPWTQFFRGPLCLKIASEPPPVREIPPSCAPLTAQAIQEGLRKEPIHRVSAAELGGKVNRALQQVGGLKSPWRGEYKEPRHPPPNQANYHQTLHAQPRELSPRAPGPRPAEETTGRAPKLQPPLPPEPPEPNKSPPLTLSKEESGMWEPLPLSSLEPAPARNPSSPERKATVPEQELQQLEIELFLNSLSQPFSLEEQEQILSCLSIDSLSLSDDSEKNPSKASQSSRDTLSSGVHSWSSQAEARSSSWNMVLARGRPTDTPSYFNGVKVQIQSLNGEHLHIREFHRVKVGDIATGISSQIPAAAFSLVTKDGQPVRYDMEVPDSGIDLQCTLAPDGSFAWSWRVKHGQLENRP
# assayProcedure: Inhibition of auto-phosphorylation of recombinant human NIK/MAP3K14 (AlphaScreen)
# Type: biochemical
# reportedConditions: NIK/MAP3K14 auto-phosphorylation, 5 microM ATP, 1 nM enzyme, 2 h at 25° C.; average of values; read-out: Assay 1 IC50
pIC50: −log10 of the molar value.
measurementType: pIC50

>>> df
                                   compound  observedvalue
0  [2H]c1nc(N)c2nc(-c3cccc(-c4cnc([C@@]5(O)CCN(C)C5=O)s4)c3)ccc2n1 (single isomer, unassigned)         > 7.00

Please look at the items below and tell me pIC50 for each one, in order.
1. COc1cc(-c2cc([C@]3(O)CCN(C)C3=O)on2)cc(-c2cccc(C(N)=O)n2)c1
2. COc1cc(C(N)=O)nc(-c2cccc(-c3cc([C@]4(O)CCN(C)C4=O)on3)c2)c1
3. Cc1cc(-c2cc([C@]3(O)CCN(C)C3=O)on2)cc(-c2cccc(C(N)=O)n2)c1

1: > 7.00; 2: > 7.00; 3: > 7.00

Please look at the items below and tell me pIC50 for each one, in order.
1. CN1CC[C@@](O)(c2cc(-c3cccc(-c4cn5ccnc5cn4)c3)no2)C1=O
2. COCCn1cc(-c2cc(C(N)=O)nc(-c3cccc(-c4cc([C@]5(O)CCN(C)C5=O)on4)c3)c2)cn1
3. CN1CC[C@@](O)(c2cc(-c3cccc(-c4ncc(Nc5ccn(C)n5)c(C(N)=O)n4)c3)no2)C1=O
4. CNc1ccc(-c2cccc(-c3cc([C@]4(O)CCN(C)C4=O)on3)c2)nc1C(N)=O
5. Cc1cn2nc(-c3cccc(-c4cc([C@]5(O)CCN(C)C5=O)on4)c3)ccc2n1

< 6.30
> 7.00
> 7.00
> 7.00
< 6.30

Please look at the items below and tell me pIC50 for each one, in order.
1. Cc1ncc(-c2cc(C(N)=O)nc(-c3cccc(-c4cc([C@]5(O)CCN(C)C5=O)on4)c3)c2)o1
2. Cc1nc(N)c2nc(-c3cccc(-c4cc([C@]5(O)CCN(C)C5=O)on4)c3)ccc2n1
3. CN1CC[C@@](O)(c2cc(-c3cccc(-c4cccc(C(N)=O)n4)c3)n(C)n2)C1=O (single isomer, unassigned)
4. CN1CC[C@@](O)(c2cc(-c3cccc(-n4nc(C(N)=O)c5c4CCCC5)c3)no2)C1=O
5. Cc1nc(N)c2nc(-c3cccc(-c4cc([C@]5(O)CCN(C)C5=O)no4)c3)ccc2n1

["> 7.00", "> 7.00", "< 6.30", "> 7.00", "> 7.00"]

Please look at the items below and tell me pIC50 for each one, in order.
1. CN1CC[C@@](O)(c2cc(-c3cccc(-c4cccc5c(=O)[nH]ccc45)n3)no2)C1=O
2. CN1CC[C@@](O)(c2cc(-c3cccc(-c4nccc(C(N)=O)n4)c3)no2)C1=O

1. > 7.00
2. > 7.00

src = patent US20250282785A1
